# testedOn: Carbonic anhydrase 9 (Homo sapiens, UniProt Q16790)
# assayDetails: Binding affinity to human recombinant CA9 catalytic domain assessed as dissociation constant calculated from kinetic parameters at pH 6 by surface plasmon resonance assay
Listed here are compounds together with their documented Kd.
Dear colleague, please return just the value in nM, with no unit written.

Study these solved cases before continuing.
{"smilesStructure": "NS(=O)(=O)c1ccc(C(=O)CSc2ncccn2)cc1", "testedOn": "Carbonic anhydrase 9 (Homo sapiens, UniProt Q16790)", "Kd, nM": 330}
{"smilesStructure": "CC(C)(C)c1cc(=O)[nH]c(SCC(=O)c2ccc(S(N)(=O)=O)cc2)n1", "testedOn": "Carbonic anhydrase 9 (Homo sapiens, UniProt Q16790)", "Kd, nM": 360}
{"smilesStructure": "CCCSc1c(F)c(F)c(S(N)(=O)=O)c(NC2CCCCCCC2)c1F", "testedOn": "Carbonic anhydrase 9 (Homo sapiens, UniProt Q16790)", "Kd, nM": 140}

Would you kindly look at the next entry?
Kd for "NS(=O)(=O)c1ccc(C(=O)CSc2ncccn2)cc1Cl" is 1100
